system: 521955-158-R2-J5-PDC complex spheroids, viability; assay: Anticancer human tumor 521955-158-R2-J5-PDC patient-derived pancreatic carcinoma cell line growth inhibition [RAS]; conditions: second compound 0.000949 µM; first compound 10 µM; stronger effect = lower value
recordedEndpoint: viability, T/C (%)
Give bare numbers, in %.

Use these answered entries as a reference point.
compound	systemUnderTest	recordedEndpoint	endpointUnit	numericResult
CC1(O)CCCC1n1c(=O)c(C(F)F)cc2cnc(NC3CCN(S(C)(=O)=O)CC3)nc21 (centres undefined) + CCn1c(-c2cc(N3CCN(C)CC3)cnc2C(C)OC)c2c3cc(ccc31)-c1csc(n1)CC(NC(=O)C1CC1C)C(=O)N1CCCC(N1)C(=O)OCC(C)(C)C2	521955-158-R2-J5-PDC complex spheroids, viability	viability, T/C	%	9
NC1c2ccccc2OC12CCN(c1cnc3c(N4CCCc5ncccc54)n[nH]c3n1)CC2 (centres undefined) + CCn1c(-c2cccnc2C(C)OC)c2c3cc(ccc31)N1CCOC(CC(NC(=O)C(C(C)C)N(C)C(=O)C3(F)CCN(C(=O)C#CC(C)(C)N(C)C)CC3)C(=O)N3CCCC(N3)C(=O)OCC(C)(C)C2)C1	521955-158-R2-J5-PDC complex spheroids, viability	viability, T/C	%	50
C[C@@H](NC(=O)c1ncnc(N)c1Cl)c1ncc(C(=O)Nc2cc(C(F)(F)F)c(Cl)cn2)s1 + CCn1c(-c2cccnc2C(C)OC)c2c3cc(ccc31)N1CCOC(CC(NC(=O)C(C(C)C)N(C)C(=O)C3(F)CCN(C(=O)C#CC(C)(C)N(C)C)CC3)C(=O)N3CCCC(N3)C(=O)OCC(C)(C)C2)C1	521955-158-R2-J5-PDC complex spheroids, viability	viability, T/C	%	53.1

State the recorded viability, T/C for this entry: Cc1nc(N2CCC3(CC2)COC(C)C3N)c(CO)nc1Sc1ccnc(N)c1Cl (centres undefined) + CCn1c(-c2cccnc2C(C)OC)c2c3cc(ccc31)N1CCOC(CC(NC(=O)C(C(C)C)N(C)C(=O)C3(F)CCN(C(=O)C#CC(C)(C)N(C)C)CC3)C(=O)N3CCCC(N3)C(=O)OCC(C)(C)C2)C1 50.8

---

Consider the following compounds; for each one, report its viability, T/C.
tested on: 521955-158-R2-J5-PDC complex spheroids, viability; experiment: Anticancer human tumor 521955-158-R2-J5-PDC cell line growth inhibition [RAS]; details: second compound 3.16 µM; first compound 0.00316 µM; stronger effect = lower value

Give viability, T/C for each of the items listed below.
1. CCN1CCN(Cc2ccc(Nc3ncc(F)c(-c4cc(F)c5nc(C)n(C(C)C)c5c4)n3)nc2)CC1 + C#Cc1c(F)ccc2cc(O)cc(-c3ncc4c(N5CC6CCC(C5)N6)nc(OCC56CCCN5CC(F)C6)nc4c3F)c12
2. C=CC(=O)N1CCN(c2nc(OCC3CCCN3C)nc3c(F)c(-c4nc(N)cc(C)c4C(F)(F)F)c(Cl)cc23)C(C)C1 (configuration not stated) + C#Cc1c(F)ccc2cc(O)cc(-c3ncc4c(N5CC6CCC(C5)N6)nc(OCC56CCCN5CC(F)C6)nc4c3F)c12

1: 50.2%; 2: 42.4%

---

test system: 521955-158-R2-J5-PDC complex spheroids, viability; assay: Anticancer human tumor 521955-158-R2-J5-PDC cell line growth inhibition [RAS]; conditions: compound 3.16 µM; stronger effect = lower value;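 also: spheroids also contain HUVEC endothelial cells and mesenchymal stem cells as stroma; compound exposure lasted seven days before the viability read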
Consider the following molecules; for each one, report its viability, T/C.

molecule	systemUnderTest	viability, T/C
CC(C)NCC(C(=O)N1CCN(c2ncnc3c2C(C)CC3O)CC1)c1ccc(Cl)cc1 (stereo not drawn)	521955-158-R2-J5-PDC complex spheroids, viability	75.7% [middle of 4 runs]
C#Cc1c(F)ccc2cc(O)cc(-c3ncc4c(N5CC6CCC(C5)N6)nc(OCC56CCCN5CC(F)C6)nc4c3F)c12 (stereo not drawn)	521955-158-R2-J5-PDC complex spheroids, viability	45.4% [middle of 8 runs]

Next up:
State the recorded viability, T/C for this entry: CCC(CC)c1cc(NC2CCC(N)C2)n2nccc2n1 (stereo not drawn) 9.87% [middle of 4 runs]

---

Test system: 521955-158-R2-J5-PDC complex spheroids, viability
Test: Anticancer human tumor 521955-158-R2-J5-PDC cell line growth inhibition [RAS];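 also: spheroids also contain HUVEC endothelial cells and mesenchymal stem cells as stroma; compound exposure lasted seven days before the viability read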
Settings: second compound 1 µM; first compound 1 µM; stronger effect = lower value
Description: RAS pathway inhibitors in Combinations in Complex Spheroids A high-throughput screen of multi-cell type tumor spheroids was designed to identify active combinations of RAS pathway inhibitors and targeted small molecules. Complex spheroids include a stromal component modeled by human endothelial cells (HUVEC) and fibroblasts modeled by human mesenchymal stem cells (MSCs). […] Compounds. […] If the clinical Cmax for an agent had not been determined, the highest concentration tested was 10 microM. […]
Consider the following compounds; for each one, report its viability, T/C.
One number for each entry, in %.

Use these answered entries as a reference point.
compound	viability, T/C [%]
NC1c2ccccc2OC12CCN(c1cnc3c(N4CCCc5ncccc54)n[nH]c3n1)CC2 (centres undefined) + C#Cc1c(F)ccc2cc(O)cc(-c3ncc4c(N5CC6CCC(C5)N6)nc(OCC56CCCN5CC(F)C6)nc4c3F)c12	13.1
CC(=O)OC12COC1CC(O)C1(C)C(=O)C(O)C3=C(C)C(OC(=O)C(O)C(NC(=O)OC(C)(C)C)c4ccccc4)CC(O)(C(OC(=O)c4ccccc4)C21)C3(C)C (centres undefined) + C#Cc1c(F)ccc2cc(O)cc(-c3ncc4c(N5CC6CCC(C5)N6)nc(OCC56CCCN5CC(F)C6)nc4c3F)c12	29.4
CC(C)NCC(C(=O)N1CCN(c2ncnc3c2C(C)CC3O)CC1)c1ccc(Cl)cc1 (centres undefined) + C#Cc1c(F)ccc2cc(O)cc(-c3ncc4c(N5CC6CCC(C5)N6)nc(OCC56CCCN5CC(F)C6)nc4c3F)c12	12.7

Next up:
State the recorded viability, T/C for this entry: CCN1CCN(Cc2ccc(Nc3ncc(F)c(-c4cc(F)c5nc(C)n(C(C)C)c5c4)n3)nc2)CC1 + C=CC(=O)N1CCN(c2nc(OCC3CCCN3C)nc3c(F)c(-c4nc(N)cc(C)c4C(F)(F)F)c(Cl)cc23)C(C)C1 100

---

system: 521955-158-R2-J5-PDC complex spheroids, viability; assay: Anticancer human tumor 521955-158-R2-J5-PDC cell line growth inhibition [RAS]; conditions: second compound 0.316 µM; first compound 0.0316 µM; stronger effect = lower value;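 also: spheroids also contain HUVEC endothelial cells and mesenchymal stem cells as stroma; compound exposure lasted seven days before the viability read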
Use viability, T/C to assign classes; range list: lowest: < 50%; middle: ≥ 50% and < 80%; highest: ≥ 80%

// known answers, use as guide
compound	cat
CC1(O)CCCC1n1c(=O)c(C(F)F)cc2cnc(NC3CCN(S(C)(=O)=O)CC3)nc21 (configuration not stated) + C=CC(=O)N1CCN(c2nc(OCC3CCCN3C)nc3c(F)c(-c4nc(N)cc(C)c4C(F)(F)F)c(Cl)cc23)C(C)C1	highest
Nc1ccn(C2OC(CO)C(O)C2(F)F)c(=O)n1 (configuration not stated) + C=CC(=O)N1CCN(c2nc(OCC3CCCN3C)nc3c(F)c(-c4nc(N)cc(C)c4C(F)(F)F)c(Cl)cc23)C(C)C1	middle

Place this compound in its band: CC(=O)OC12COC1CC(O)C1(C)C(=O)C(O)C3=C(C)C(OC(=O)C(O)C(NC(=O)OC(C)(C)C)c4ccccc4)CC(O)(C(OC(=O)c4ccccc4)C21)C3(C)C (configuration not stated) + C=CC(=O)N1CCN(c2nc(OCC3CCCN3C)nc3c(F)c(-c4nc(N)cc(C)c4C(F)(F)F)c(Cl)cc23)C(C)C1 lowest

Place this compound in its band: C=CC(=O)N1CCN(c2nc(OCC3CCCN3C)nc3c(F)c(-c4nc(N)cc(C)c4C(F)(F)F)c(Cl)cc23)C(C)C1 (configuration not stated) + C#Cc1c(F)ccc2cc(O)cc(-c3ncc4c(N5CC6CCC(C5)N6)nc(OCC56CCCN5CC(F)C6)nc4c3F)c12 middle

Place this compound in its band: C[C@@H](NC(=O)c1ncnc(N)c1Cl)c1ncc(C(=O)Nc2cc(C(F)(F)F)c(Cl)cn2)s1 + C#Cc1c(F)ccc2cc(O)cc(-c3ncc4c(N5CC6CCC(C5)N6)nc(OCC56CCCN5CC(F)C6)nc4c3F)c12 middle

Place this compound in its band: CC(C)NCC(C(=O)N1CCN(c2ncnc3c2C(C)CC3O)CC1)c1ccc(Cl)cc1 (configuration not stated) + C=CC(=O)N1CCN(c2nc(OCC3CCCN3C)nc3c(F)c(-c4nc(N)cc(C)c4C(F)(F)F)c(Cl)cc23)C(C)C1 highest

---

system: 521955-158-R2-J5-PDC complex spheroids, viability; experiment: Anticancer human tumor 521955-158-R2-J5-PDC cell line growth inhibition [RAS]; conditions: second compound 0.000949 µM; first compound 0.1 µM; stronger effect = lower value;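 also: spheroids also contain HUVEC endothelial cells and mesenchymal stem cells as stroma; compound exposure lasted seven days before the viability read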
recordedEndpoint: viability, T/C (%)
One number for each entry, in %.

compound	recordedEndpoint	endpointUnit	numericResult
C=CC(=O)N1CCN(c2nc(OCC3CCCN3C)nc3c(F)c(-c4nc(N)cc(C)c4C(F)(F)F)c(Cl)cc23)C(C)C1 (configuration not stated) + CCn1c(-c2cccnc2C(C)OC)c2c3cc(ccc31)N1CCOC(CC(NC(=O)C(C(C)C)N(C)C(=O)C3(F)CCN(C(=O)C#CC(C)(C)N(C)C)CC3)C(=O)N3CCCC(N3)C(=O)OCC(C)(C)C2)C1	viability, T/C	%	103
C=CC(=O)N1CCN(c2nc(OCC3CCCN3C)nc3c(F)c(-c4nc(N)cc(C)c4C(F)(F)F)c(Cl)cc23)C(C)C1 (configuration not stated) + CCn1c(-c2cc(N3CCN(C)CC3)cnc2C(C)OC)c2c3cc(ccc31)-c1csc(n1)CC(NC(=O)C1CC1C)C(=O)N1CCCC(N1)C(=O)OCC(C)(C)C2	viability, T/C	%	45.9
CCN1CCN(Cc2ccc(Nc3ncc(F)c(-c4cc(F)c5nc(C)n(C(C)C)c5c4)n3)nc2)CC1 + CCn1c(-c2cc(N3CCN(C)CC3)cnc2C(C)OC)c2c3cc(ccc31)-c1csc(n1)CC(NC(=O)C1CC1C)C(=O)N1CCCC(N1)C(=O)OCC(C)(C)C2	viability, T/C	%	31.6
NC1c2ccccc2OC12CCN(c1cnc3c(N4CCCc5ncccc54)n[nH]c3n1)CC2 (configuration not stated) + CCn1c(-c2cccnc2C(C)OC)c2c3cc(ccc31)N1CCOC(CC(NC(=O)C(C(C)C)N(C)C(=O)C3(F)CCN(C(=O)C#CC(C)(C)N(C)C)CC3)C(=O)N3CCCC(N3)C(=O)OCC(C)(C)C2)C1	viability, T/C	%	61.4
CC(C)n1nc(-c2ccc3oc(N)nc3c2)c2c(N)ncnc21 + CCn1c(-c2cccnc2C(C)OC)c2c3cc(ccc31)N1CCOC(CC(NC(=O)C(C(C)C)N(C)C(=O)C3(F)CCN(C(=O)C#CC(C)(C)N(C)C)CC3)C(=O)N3CCCC(N3)C(=O)OCC(C)(C)C2)C1	viability, T/C	%	36.5
CC(Nc1ccc2c(c1)OCCn1cc(N3C(=O)OCC3C(F)F)nc1-2)C(N)=O (configuration not stated) + CCn1c(-c2cccnc2C(C)OC)c2c3cc(ccc31)N1CCOC(CC(NC(=O)C(C(C)C)N(C)C(=O)C3(F)CCN(C(=O)C#CC(C)(C)N(C)C)CC3)C(=O)N3CCCC(N3)C(=O)OCC(C)(C)C2)C1	viability, T/C	%	46.7

Next up:
State its viability, T/C on 521955-158-R2-J5-PDC complex spheroids, viability: Cc1nc(N2CCC3(CC2)COC(C)C3N)c(CO)nc1Sc1ccnc(N)c1Cl (configuration not stated) + CCn1c(-c2cccnc2C(C)OC)c2c3cc(ccc31)N1CCOC(CC(NC(=O)C(C(C)C)N(C)C(=O)C3(F)CCN(C(=O)C#CC(C)(C)N(C)C)CC3)C(=O)N3CCCC(N3)C(=O)OCC(C)(C)C2)C1 64
